- Test system: UACC-257
- ASSAY PROTOCOL: NCI tumour cell line growth inhibition, 48 h
Activity calls are given as the source filed them. No stated cut-off is given here; in the data, active = GI50 up to about 1.1 µM and inactive = higher.
Kindly state GI50 for each of the entries shown.

COMPOUND	TARGET SYSTEM	GI50
OCCOCn1nc(-c2ccccc2)nc1-c1cnccn1	UACC-257	> 100 µM (inactive)
COc1ccc(CC(=O)NCCc2ccc(OC)c(OC)c2OC)cc1	UACC-257	> 100 µM (inactive)
O=[N+]([O-])c1ccc(C2c3c(O)nc(O)nc3Oc3nc(O)nc(O)c32)cc1	UACC-257	> 100 µM (inactive)

Kindly consider the entry below.
INPUT: Kindly state the measured GI50 obtained for COc1cccc2c1C(=O)c1c(O)c3c(c(O)c1C2=O)C[C@@](O)(C(C)=O)C[C@@H]3OC1CC(N(Cc2ccccc2)Cc2ccccc2)C(O)C(C)O1 (some centres undefined) with UACC-257.
OUTPUT: 26.4 µM (inactive)

###

- Test system: SF-268
- ASSAY PROTOCOL: NCI tumour cell line growth inhibition, 48 h
Active and inactive are the calls of the source. Rule as the data show it: active = GI50 up to about 1.1 µM and inactive = higher.
Please go through the items and note down their GI50.

>>> print(df.to_string())
                                   compound  target_system  experimental_endpoint         result_value
0  COc1ccc(C(SC2C(O)C(CO)OC2n2ccc(N)nc2=O)(c2ccccc2)c2ccc(OC)cc2)cc1 (stereo not drawn)         SF-268                   GI50   17.7 µM (inactive)
1  COc1ccc(N[C@H](CSc2ccc(C)cc2)c2ccc(F)cc2)cc1         SF-268                   GI50  > 100 µM (inactive)

Could you tell me GI50 for each of these compounds? They are listed below.
1. CC(C)=CCc1c(OC(=O)c2c(C)cc(O)cc2O)cc(CO)c(CO)c1O
2. COc1ccc(-c2onc(-c3c(C)cc(C)cc3C)c2C2=NCCCN2)cc1
3. O=C(/N=N/c1ccc([N+](=O)[O-])cc1)NNc1ccc([N+](=O)[O-])cc1
4. Cc1nc(C)c(N2CCN(Cc3ccccc3)CC2)c(O)n1
5. CSc1ccc(NC(=O)Nc2cc(C)ccn2)cc1

OUTPUT:
1: 26.7 µM (inactive); 2: 36.7 µM (inactive); 3: 21.8 µM (inactive); 4: > 100 µM (inactive); 5: > 100 µM (inactive)

###

- Tested on: NCI-H460
- ASSAY PROTOCOL: NCI tumour cell line growth inhibition, 48 h
The source made the active and inactive calls. Cut-off read from the data, not from the text of the source: active = GI50 up to about 1.1 µM and inactive = higher.
Would you mind telling me the reported GI50 of each entry?

Solved entries (count: 2):
>>> df
                                   compound        result_value
0  O=C1/C(=C/c2ccc(O)c(O)c2)CCC/C1=C\c1ccc(O)c(O)c1  3.45 µM (inactive)
1  COc1cc(C2c3cc4c(cc3OC(N3CCCCC3)C2C)OCO4)cc(OC)c1OC (stereo not drawn)  3.52 µM (inactive)

INPUT: What GI50 value was documented for this compound, `O=c1cnn2c(n1)sc1ccc3ccccc3c12` ?
OUTPUT: 61.2 µM (inactive)

###

- Tested on: UO-31
- ASSAY PROTOCOL: NCI tumour cell line growth inhibition, 48 h
The source made the active and inactive calls. Cut-off read from the data, not from the text of the source: active = GI50 up to about 1.1 µM and inactive = higher.
EXPERIMENTAL ENDPOINT: GI50

In [3]: df
Out[3]:
                                   molecule  target_system  experimental_endpoint         result_value
0               N/N=C(\Nc1ccccc1)SCc1ccccc1          UO-31                   GI50  > 100 µM (inactive)
1  Cn1ccc(C(=O)NCCN(CCNC(=O)c2ccn(C)c(=O)c2O)CCNC(=O)c2cccc(=O)n2O)c(O)c1=O          UO-31                   GI50  > 100 µM (inactive)
2               C=CCn1c(N)c(C#N)c(C#N)c1CCC          UO-31                   GI50  > 100 µM (inactive)

Let us examine a further case.
INPUT: Query the reported GI50 for UO-31; item: `Cc1cc(C)nc(NS(=O)(=O)c2ccc(NC(=O)c3c4ccccc4nc4ccccc34)cc2)n1`
OUTPUT: 37.4 µM (inactive)

###

- Tested on: OVCAR-5
- ASSAY PROTOCOL: NCI tumour cell line growth inhibition, 48 h
The source made the active and inactive calls. No stated cut-off is given here; in the data, active = GI50 up to about 1.1 µM and inactive = higher.
Provide the reported GI50 of each item.

Hi there! I need GI50 for each item below, if you can.
1. O=C1C(Cl)=C(NCCCN2CCOCC2)C(=O)c2c(O)ccc(O)c21
2. COC(OC)[C@@H]1OC[C@@H](O)[C@@H]1n1cnc2c(N)ncnc21
3. COC(=O)C1C=CCC2CCCCC21N1CCCC1 (centres undefined)
4. Cc1ccc(C(C)C)c(OCC(=O)N/N=C/c2c[nH]c3ccc(Br)cc23)c1

OUTPUT:
1. 1.71 µM (inactive)
2. > 100 µM (inactive)
3. > 100 µM (inactive)
4. 5.11 µM (inactive)

###

- Test system: HT-29
- ASSAY PROTOCOL: NCI tumour cell line growth inhibition, 48 h
Calls of active or inactive are those of the source. Rule as the data show it: active = GI50 up to about 1.1 µM and inactive = higher. Where a SMILES comes first, the peptide text is derived from it. Square brackets hold non-standard residues; d marks the D form. Peptide text beside a SMILES is read from it. [ ]: non-standard residue; d: D form. The star is where a group is joined. * marks the point of attachment. ξ: configuration not given here. NMeF = CN[C@@H](Cc1ccccc1)C(=O)O; NMeV = CN[C@H](C(=O)O)C(C)C; ξNMeN = CNC(CC(N)=O)C(=O)O; NMeA = CN[C@@H](C)C(=O)O; ξNMeV = CNC(C(=O)O)C(C)C; Boc = CC(C)(C)OC(=O)*; OBn = c1ccc(CO*)cc1
EXPERIMENTAL ENDPOINT: GI50

COMPOUND	RESULT VALUE
CCOC(=O)c1ccc(OCc2nc3cc(C(F)(F)F)ccc3nc2-c2ccccc2)cc1	> 100 µM (inactive)
CSc1ccc(NC(=O)CCl)cc1	3.65 µM (inactive)

Here are 3 compounds. What values of GI50 were reported for them?
1. COC(=O)[C@H](C)N(C)C(=O)C(CC(N)=O)N(C)C(=O)[C@H](Cc1ccccc1)N(C)C(=O)[C@@H]1CCCN1C(=O)[C@H](C(C)C)N(C)C(=O)C(C(C)C)N(C)C(=O)[C@@H](NC(=O)OC(C)(C)C)C(C)C (stereo not given in full) (Boc-V[ξNMeV][NMeV]P[NMeF][ξNMeN][NMeA]-OMe)
2. N/N=C(\Nc1ccccc1)SCc1ccccc1
3. C[C@@H](NC(=O)CNC(=O)OC(C)(C)C)C(=O)N[C@@H](Cc1ccccc1)C(=O)OCc1ccccc1 (Boc-Gly-[dA]-Phe-OBn)

OUTPUT:
["> 50 µM (inactive)", "> 100 µM (inactive)", "90.4 µM (inactive)"]

###

- Tested on: MDA-N
- ASSAY PROTOCOL: NCI tumour cell line growth inhibition, 48 h
Active and inactive are the calls of the source. No stated cut-off is given here; in the data, active = GI50 up to about 1.1 µM and inactive = higher.
Provide the recorded GI50 for the entries that follow.

Below: 5 compounds and their reported GI50.
>>> df
                                   compound          result_value
0  O=[N+]([O-])c1ccc(C2c3c(O)nc(O)nc3Oc3nc(O)nc(O)c32)cc1   > 100 µM (inactive)
1  CC1CCCc2c(-c3ccc(Cl)cc3)nc(N)c(C#N)c21 (configuration not stated)      24 µM (inactive)
2  O=C1OCC(O)=C1C(c1ccc(Cl)cc1)c1cc2c(cc1O)OCO2 (configuration not stated)   > 100 µM (inactive)
3  COc1ccc2c(c1)CC1C3(CCCCC23)CC[N+]1(C)C (configuration not stated)   > 100 µM (inactive)
4  CCOC(=O)c1c2ccccc2n2c(=O)n(-c3ccccc3)nnc12  > 42.4 µM (inactive)

Would you mind giving GI50 for every compound in the list below?
1. CSc1ncc2c(n1)C(C#N)C1Sc3ccccc3N1C2=O (configuration not stated)
2. CCCCC(=O)c1c(O)ccc2c(C)cc(=O)oc12
3. C=C=C(C)C(=O)N(C(C)C)C(C)C
4. CCN(CC)CCN(C(=O)c1ccc(F)cc1)c1ccccc1N
5. CC(=O)OCC(OC(C)=O)C(OC(C)=O)C(/C=N\Nc1nc2ccccc2c(=O)[nH]1)=N\Nc1nc2ccccc2c(=O)[nH]1 (configuration not stated)
6. Cc1cc(C)n(C(=O)CSc2nnc(SCC(=O)n3nc(C)cc3C)s2)n1
7. NC(=S)N1N=C(c2ccc3c(c2)CCC3)CC1c1ccccc1 (configuration not stated)
8. CC12CCC(CC(=O)/C1=C(/Br)I)C2(C)C (configuration not stated)

OUTPUT:
1: > 100 µM (inactive); 2: > 100 µM (inactive); 3: > 100 µM (inactive); 4: > 10 µM (inactive); 5: > 100 µM (inactive); 6: > 100 µM (inactive); 7: 22.9 µM (inactive); 8: 12.2 µM (inactive)

Working through the 4 compounds below one at a time, give GI50 for each.
1. C[C@H]1CC[C@@H]2[C@@H](C)[C@H]3[C@H](C[C@H]4[C@@H]5CC=C6C[C@@H](O)CC[C@]6(C)[C@H]5C[C@H](O)[C@]34C)N2C1
2. CSc1ncnc2c1cnn2Cc1cn(COCC(O)CO)nn1 (configuration not stated)
3. Nc1c2ccccc2nc2c1ccc1ncccc12
4. CC1CNC(c2ccc(-c3nc(-c4ccc(C5=NC(C)CN5)cc4)nc(N(C)C)n3)cc2)=N1 (configuration not stated)

OUTPUT:
1. > 100 µM (inactive)
2. > 100 µM (inactive)
3. 28.1 µM (inactive)
4. 1.85 µM (inactive)
